Target: human NAMPT (Homo sapiens, UniProt P43490)
Sequence (P43490 whole entry): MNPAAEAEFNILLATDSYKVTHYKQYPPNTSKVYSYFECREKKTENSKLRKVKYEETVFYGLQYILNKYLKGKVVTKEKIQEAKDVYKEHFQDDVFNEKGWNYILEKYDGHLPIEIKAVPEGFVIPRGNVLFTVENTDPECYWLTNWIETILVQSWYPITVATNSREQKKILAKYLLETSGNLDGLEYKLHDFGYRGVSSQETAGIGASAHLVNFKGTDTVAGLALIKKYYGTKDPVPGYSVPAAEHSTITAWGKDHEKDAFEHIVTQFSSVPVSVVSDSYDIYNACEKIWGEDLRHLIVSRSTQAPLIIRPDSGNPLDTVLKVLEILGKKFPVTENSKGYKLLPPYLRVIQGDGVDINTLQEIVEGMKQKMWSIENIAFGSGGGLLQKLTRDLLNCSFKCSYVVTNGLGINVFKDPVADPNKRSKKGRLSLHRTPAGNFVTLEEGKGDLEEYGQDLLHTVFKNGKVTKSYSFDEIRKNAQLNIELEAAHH
Experiment: Human recombinant enzyme assay (NMN fluorescence biochemical assay, activation of NAMPT)
Settings: Table A; human recombinant NAMPT, NMN formation, 60 min
Endpoint: AC1.4 Human (µM)

Here's what some known entries look like.
{"Compound": "CN(C(=O)CCCCCNC(=O)NCc1ccc(Cl)cc1)c1ccccc1 [Compound 268]", "Endpoint": "AC1.4 Human", "Value unit": "µM", "Numeric value": 0.3}
{"Compound": "COc1ccc(CNC(=O)NC2CC3(CC(Cn4ncc5ccccc54)C3)C2)cc1 (centres unmarked) [Compound 134]", "Endpoint": "AC1.4 Human", "Value unit": "µM", "Numeric value": 0.6}
{"Compound": "Cc1ccc(C(C)(O)C2CC3(CC(NC(=O)NCc4ccc(Cl)cc4)C3)C2)cn1 (centres unmarked) [Compound 338]", "Endpoint": "AC1.4 Human", "Value unit": "µM", "Numeric value": 6.4}

P. CN(C(=O)CCCCCNC(=O)NCc1ccc(Cl)cc1)c1cccnc1 [Compound 270]
Q. COc1ccc(CNC(=O)NC2CC3(C2)CN(C(=O)c2cccc(C(C)(C)C)c2)C3)cc1 [Compound 174]
query: Field: lower recorded AC1.4 Human (choose P or Q ) State the label of the item chosen.
result: P

* * *

Target: UniProtKB P43490
Test: Human recombinant enzyme assay (NMN fluorescence biochemical assay, activation of NAMPT)
Conditions: Table A; human recombinant NAMPT, NMN formation, 60 min; read-out: EC50 Human
Endpoint: EC50 (µM)

Here's what some known entries look like.
{"Compound": "Cc1cccc(C(=O)NCCCCCNC(=O)NCc2ccc(Cl)cc2)c1 [Compound 276]", "Value unit": "µM", "EC50": 9.5}
{"Compound": "COc1ccc(CNC(=O)NC2CC3(CC(Cn4ncc5ccccc54)C3)C2)cc1 (stereo not drawn) [Compound 134]", "Value unit": "µM", "EC50": 7.2}
{"Compound": "CS(=O)(=O)c1cccc(C(=O)NC2CC3(CC(NC(=O)NCc4ccc(Cl)cc4)C3)C2)c1 (stereo not drawn) [Compound 195]", "Value unit": "µM", "EC50": 23.5}

1. CC(C)(O)CN1CCN(C(=O)C2CC3(CC(NC(=O)NCc4ccc(F)cc4)C3)C2)CC1 (stereo not drawn) [Compound 109]
2. O=C(NCc1ccc(Cl)cc1)NC1CC2(C1)CC(NC(=O)c1cccc(O)c1)C2 (stereo not drawn) [Compound 200]
3. COc1ccc(CNC(=O)NC2CC3(C2)CC(C(=O)NC2CC(c4ccncc4)C2)C3)cc1 (stereo not drawn) [Compound 78]
query: Ascending by EC50, please: list the compounds accordingly. // format: requested-order list of labels
result: 1, 2, 3

* * *

Biological target: human NAMPT (Homo sapiens, UniProt P43490)
Test: Human recombinant enzyme assay (NMN fluorescence biochemical assay, activation of NAMPT)
Details: Table A; human recombinant NAMPT, NMN formation, 60 min; read-out: EC50 Human
Endpoint: EC50 (µM)

P. O=C(NCc1ccc(Cl)cc1)NC1CC2(C1)CC(NS(=O)(=O)c1cccnc1)C2 (stereo not drawn)
Q. COc1ccc(CNC(=O)NCC2CC23CCN(C(=O)OC(C)(C)C)CC3)cc1 (stereo not drawn)
R. COc1ccc(CNC(=O)NC2CC3(C2)CC(C(=O)N2CCCc4c(F)cccc42)C3)cc1 (stereo not drawn)
S. COC(=O)c1cccc(C(=O)N2CC3(CC(NC(=O)NCc4ccc(OC)cc4)C3)C2)c1
query: Order all 4 entries above by recorded EC50, highest first, lowest last. // format: requested-order list of labels
result: Q, S, P, R
(Q: 42.5 µM, S: 29.7 µM, P: 6.8 µM, R: 2.2 µM)

a. CC1CCN(CC2CC3(C2)CC(NC(=O)NCc2ccc(Cl)cc2)C3)C1=O (stereo not drawn)
b. COc1ccc(CNC(=O)NC2CC3(C2)CC(C(=O)N2CC(c4ccccc4)C2)C3)cc1 (stereo not drawn)
c. Cc1ccccc1N(C)C(=O)CCCCCNC(=O)NCc1ccc(Cl)cc1
query: Ascending by EC50, please: list the compounds accordingly. // format: requested-order list of labels
result: c, a, b

* * *

Target: human NAMPT (Homo sapiens, UniProt P43490)
Test: Human recombinant enzyme assay (NMN fluorescence biochemical assay, activation of NAMPT)
Conditions: Table A; human recombinant NAMPT, NMN formation, 60 min; read-out: EC50 Human
Endpoint: EC50 (µM)

Here's what some known entries look like.
{"Compound": "O=C1CC(C(=O)N2CCC(CCCCNC(=O)NCc3ccc(Cl)cc3)CC2)CCN1 (stereo not shown) [Compound 301]", "Target": "human NAMPT (Homo sapiens, UniProt P43490)", "Endpoint": "EC50", "Numeric value": 26.3}
{"Compound": "Cc1ncccc1C(=O)NC1CC2(CC(NC(=O)NCc3ccc(Cl)cc3)C2)C1 (stereo not shown) [Compound 203]", "Target": "human NAMPT (Homo sapiens, UniProt P43490)", "Endpoint": "EC50", "Numeric value": 34.3}

1. O=C(NCc1ccc(Cl)cc1)NC1CC2(C1)CC(C(O)c1ccccc1)C2 (stereo not shown) [Compound 328]
2. O=C(NCCOCCOc1ccccc1)NCc1ccc(Cl)cc1 [Compound 196]
3. Cc1cc(C(=O)NC2CC3(CC(NC(=O)NCc4ccc(Cl)cc4)C3)C2)ccn1 (stereo not shown) [Compound 186]
4. Cc1ccc(NC(=O)CCCCCNC(=O)NCc2ccc(Cl)cc2)cn1 [Compound 278]
5. CN(C(=O)CCCCCNC(=O)NCc1ccc(Cl)cc1)c1ccccc1F [Compound 274]
query: Ascending by EC50, please: list the compounds accordingly. // format: requested-order list of labels
result: 5, 1, 4, 2, 3
(5: 0.3 µM, 1: 4.3 µM, 4: 7.1 µM, 2: 25.5 µM, 3: 53.4 µM)

* * *

Target: human NAMPT (Homo sapiens)
Assay: Human recombinant enzyme assay (NMN fluorescence biochemical assay, activation of NAMPT)
Details: Table A; human recombinant NAMPT, NMN formation, 60 min
Description: Compounds described herein were assayed for their ability to stimulate the synthesis of nicotinamide mononucleotide (NMN) by the enzyme NAMPT. […] Dose responses were measured using an assay to detect the formation of nicotinamide mono-nucleotide. […] The plates were read for fluorescence (Excitation/Emission=355 nm/460 nm) using an EnVision plate reader after 40 mins of incubation at ambient temperature.
Endpoint: AC1.4 Human (µM)

Here's what some known entries look like.
{"Molecule": "O=C(NCc1ccc(Cl)cc1)NC1CC2(C1)CC(NC(=O)c1ccccc1)C2 (stereo not drawn) [Compound 114]", "Numeric value": 11.0}
{"Molecule": "Cc1ccc(C(=O)NC(C)C2CC3(CC(NC(=O)NCc4ccc(Cl)cc4)C3)C2)cn1 (stereo not drawn) [Compound 255]", "Numeric value": 2.5}
{"Molecule": "COc1ccc(CNC(=O)NC2CC3(C2)CN(C(=O)c2ccc(C(F)(F)F)cc2)C3)cc1 [Compound 147]", "Numeric value": 5.8}
{"Molecule": "NC(=O)c1ccc(CNC(=O)NC2CC3(C2)CC(NC(=O)c2ccccc2)C3)cc1 (stereo not drawn) [Compound 14]", "Numeric value": 2.7}
{"Molecule": "COc1ccc(CNC(=O)NC2CC3(CC(CN4CCc5ccccc54)C3)C2)cc1 (stereo not drawn) [Compound 128]", "Numeric value": 0.6}
{"Molecule": "COc1ccc(CNC(=O)NC2CC3(C2)CN(C(=O)Nc2cccc(C#N)n2)C3)cc1 [Compound 132]", "Numeric value": 15.0}
{"Molecule": "COc1ccc(CNC(=O)NC2CC3(C2)CC(C(=O)N2CCCc4ccc(F)cc42)C3)cc1 (stereo not drawn) [Compound 106]", "Numeric value": 0.1}
{"Molecule": "COc1ccc(CNC(=O)NC2CC3(C2)CN(C(=O)c2ccc(Cl)cc2)C3)cc1 [Compound 158]", "Numeric value": 2.7}

a. O=C(NCc1ccc(Cl)cc1)NC1CC2(CC(CC(=O)N3CCCC3)C2)C1 (stereo not drawn) [Compound 236]
b. COc1cccc(C(=O)NC2CC3(CC(NC(=O)NCc4ccc(Cl)cc4)C3)C2)c1 (stereo not drawn) [Compound 194]
query: Field: lower recorded AC1.4 Human (choose a or b ) State the label of the item chosen.
result: a
(a: 3.6 µM, b: 8.8 µM)

* * *

Target: human NAMPT (Homo sapiens, UniProt P43490)
Test: Human recombinant enzyme assay (NMN fluorescence biochemical assay, activation of NAMPT)
Conditions: Table A; human recombinant NAMPT, NMN formation, 60 min; read-out: EC50 Human
Endpoint: EC50 (µM)

I. Cc1ccc(CC(=O)N2CCC(CCCCNC(=O)NCc3ccc(Cl)cc3)CC2)cn1
II. COc1ccc(CNC(=O)NC2CC3(C2)CC(OCc2ccncc2)C3)cc1 (stereo not drawn)
III. O=C(CCCCCNC(=O)NCc1ccc(Cl)cc1)NC1CCCC1
query: Order by EC50, smallest first, the items presented above. // format: requested-order list of labels
result: I, III, II
(I: 3.4 µM, III: 23.1 µM, II: 40.3 µM)
